tested on: 30 strains of coliform bacilli collected from the living body of humans; experiment: MIC50/MIC70 against 30 strains of coliform bacilli; type: cell-based; details: 70% of the 30 strains; present compound 10 μg/ml
READOUT_TYPE: MIC70 of mecillinam combined with present compound (µg/mL)

Example entries begin here.
SMILES_INPUT	EXPERIMENTAL_RESULT
C[C@]1(Cn2nncc2C(=O)O)[C@H](C(=O)O)N2C(=O)C[C@H]2S1(=O)=O	0.39
CCOC(=O)c1cn(C[C@@]2(C)[C@H](C(=O)O)N3C(=O)C[C@H]3S2(=O)=O)nn1	0.39
C[C@]1(Cn2ccnn2)[C@H](C(=O)O)N2C(=O)C[C@H]2S1(=O)=O	0.2

(P) CCOC(=O)c1cnnn1C[C@@]1(C)[C@H](C(=O)O)N2C(=O)C[C@H]2S1(=O)=O
(Q) C[C@]1(Cn2cc(C(=O)O)nn2)[C@H](C(=O)O)N2C(=O)C[C@H]2S1(=O)=O
IN: Higher MIC70 of mecillinam combined with present compound: P or Q ? Lab note: record the label of whichever item you select.
OUT: P
